test: Hematology assays in cynomolgus monkeys (Example 45); assay type: in vivo; details: day 43
Outcome measure: reticulocytes
State the result as a value with its unit after it.

ISIS 416858: MOE gapmer, nucleobases 1275 to 1318 of SEQ ID NO: 1 (Table 8) (antisense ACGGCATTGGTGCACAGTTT; MOE gapmer, wing and gap sizes not given here) = 1.3%

Consider the record given below.
**Q:** Kindly indicate its recorded reticulocytes. Item: ISIS 416864: MOE gapmer, nucleobases 1275 to 1318 of SEQ ID NO: 1 (Table 8) (antisense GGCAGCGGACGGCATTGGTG; MOE gapmer, wing and gap sizes not given here)
**A:** 1.1%

###

assay: Hematology assays in cynomolgus monkeys (Example 45); format: in vivo; details: day 78; escalating dose regimen
Consider the following substances; for each one, report its MCV.
Numbers only, in fL.

Provide reported MCV for each item, in the same order as listed.
1. ISIS 416838: MOE gapmer, nucleobases 1018 to 1042 of SEQ ID NO: 1 (Table 6) (antisense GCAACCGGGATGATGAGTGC; MOE gapmer, wing and gap sizes not given here)
2. ISIS 416864: MOE gapmer, nucleobases 1275 to 1318 of SEQ ID NO: 1 (Table 8) (antisense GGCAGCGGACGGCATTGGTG; MOE gapmer, wing and gap sizes not given here)
3. ISIS 417002: MOE gapmer, nucleobases 1275 to 1318 of SEQ ID NO: 1 (Table 8) (antisense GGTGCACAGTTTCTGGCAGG; MOE gapmer, wing and gap sizes not given here)

**A:**
76
74
75

###

Consider the following substances; for each one, report its ALT.
test: Tolerability in Sprague-Dawley rats: liver function (Example 35); conditions: plasma, 50 mg/kg s.c. twice per week for 6 weeks
One number for each entry, in IU/L.

Consider the following illustrative entries.
ISIS 416850: MOE gapmer, nucleobases 1275 to 1318 of SEQ ID NO: 1 (Table 8) (antisense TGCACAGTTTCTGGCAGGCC; MOE gapmer, wing and gap sizes not given here) = 80
ISIS 417002: MOE gapmer, nucleobases 1275 to 1318 of SEQ ID NO: 1 (Table 8) (antisense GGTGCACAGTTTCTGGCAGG; MOE gapmer, wing and gap sizes not given here) = 44
ISIS 416864: MOE gapmer, nucleobases 1275 to 1318 of SEQ ID NO: 1 (Table 8) (antisense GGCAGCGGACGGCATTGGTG; MOE gapmer, wing and gap sizes not given here) = 471

Provide reported ALT for each item, in the same order as listed.
1. ISIS 416858: MOE gapmer, nucleobases 1275 to 1318 of SEQ ID NO: 1 (Table 8) (antisense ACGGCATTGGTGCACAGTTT; MOE gapmer, wing and gap sizes not given here)
2. ISIS 416838: MOE gapmer, nucleobases 1018 to 1042 of SEQ ID NO: 1 (Table 6) (antisense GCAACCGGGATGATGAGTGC; MOE gapmer, wing and gap sizes not given here)

**A:**
[13, 5]

###

test system: human Factor 11 mRNA; test: Antisense inhibition of human Factor 11 in HepG2 cells by microwalk gapmers, lipofectin, 75 nM (Example 3); type: cell-based; details: HepG2, lipofectin, ~24 h, gapmers targeted to nucleobases 656 to 704 of SEQ ID NO: 1
Strand notation (5' to 3'): a small letter for the sugar, then the base; units joined by * are phosphorothioate-linked, units joined directly phosphodiester-linked; [ ] holds rarer units or linkages, { } end groups; capitals alone tell only the bases. e = 2'-O-(2-methoxyethyl) (MOE); [5mC] = 5-methylcytosine; d = 2'-deoxy (DNA)
Outcome measure: % inhibition (%)
Give bare numbers, in %.

Provide reported % inhibition for each item, in the same order as listed.
1. 416819 (antisense eA*eT*eG*eT*e[5mC]*dT*dA*dG*dG*dT*d[5mC]*d[5mC]*dA*d[5mC]*dA*eT*eA*eA*eA*eT) [compound 416819]
2. 413468 (antisense eG*eT*e[5mC]*eT*eA*dG*dG*dT*d[5mC]*d[5mC]*dA*d[5mC]*dA*dT*dA*eA*eA*eT*eG*eT) [compound 413468]
3. 416810 (antisense e[5mC]*eA*e[5mC]*eA*eT*dA*dA*dA*dT*dG*dT*d[5mC]*dT*dT*dT*eG*eT*eT*eG*e[5mC]) [compound 416810]

**A:**
56
83
68

###

Consider the following substances; for each one, report its RBC count.
assay: Hematology assays in cynomolgus monkeys (Example 45); format: in vivo; details: day 43; escalating dose regimen
One number for each entry, in µL⁻¹.

ISIS 416858: MOE gapmer, nucleobases 1275 to 1318 of SEQ ID NO: 1 (Table 8) (antisense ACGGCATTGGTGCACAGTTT; MOE gapmer, wing and gap sizes not given here) = 5.5e+06
ISIS 417002: MOE gapmer, nucleobases 1275 to 1318 of SEQ ID NO: 1 (Table 8) (antisense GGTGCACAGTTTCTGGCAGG; MOE gapmer, wing and gap sizes not given here) = 5.4e+06
ISIS 416850: MOE gapmer, nucleobases 1275 to 1318 of SEQ ID NO: 1 (Table 8) (antisense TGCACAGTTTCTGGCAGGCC; MOE gapmer, wing and gap sizes not given here) = 5.2e+06
ISIS 416864: MOE gapmer, nucleobases 1275 to 1318 of SEQ ID NO: 1 (Table 8) (antisense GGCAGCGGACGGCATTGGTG; MOE gapmer, wing and gap sizes not given here) = 5.5e+06

**Q:** Kindly indicate its recorded RBC count. Item: ISIS 416838: MOE gapmer, nucleobases 1018 to 1042 of SEQ ID NO: 1 (Table 6) (antisense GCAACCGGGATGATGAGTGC; MOE gapmer, wing and gap sizes not given here)
**A:** 5.6e+06

###

Consider the following substances; for each one, report its ALT.
test: Tolerability in Sprague-Dawley rats: liver function (Example 44); assay type: in vivo; settings: 50 mg/kg s.c. twice per week for 6 weeks, plasma
Strand notation (5' to 3'): a small letter for the sugar, then the base; units joined by * are phosphorothioate-linked, units joined directly phosphodiester-linked; [ ] holds rarer units or linkages, { } end groups; capitals alone tell only the bases. e = 2'-O-(2-methoxyethyl) (MOE); [5mC] = 5-methylcytosine; d = 2'-deoxy (DNA)
Give bare numbers, in IU/L.

ISIS 449710: 3-8-3, 4-8-4, 2-10-2, 3-10-3 or 4-10-4 MOE microwalk gapmer (Table 46) (antisense e[5mC]*eA*e[5mC]*dA*dG*dT*dT*dT*d[5mC]*dT*dG*dG*d[5mC]*eA*eG*eG) = 36

Consider the record given below.
**Q:** Kindly indicate its recorded ALT. Item: ISIS 449707: 3-8-3, 4-8-4, 2-10-2, 3-10-3 or 4-10-4 MOE microwalk gapmer (Table 46) (antisense e[5mC]*eA*e[5mC]*eA*dG*dT*dT*dT*d[5mC]*dT*dG*dG*e[5mC]*eA*eG*eG)
**A:** 61

###

experiment: Hematology assays in cynomolgus monkeys (Example 45); format: in vivo; conditions: day 57; escalating dose regimen
Outcome measure: MCH (pg)
Answers are plain numbers, in pg.

Consider the following illustrative entries.
ISIS 416850: MOE gapmer, nucleobases 1275 to 1318 of SEQ ID NO: 1 (Table 8) (antisense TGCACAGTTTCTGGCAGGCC; MOE gapmer, wing and gap sizes not given here) = 23
ISIS 416838: MOE gapmer, nucleobases 1018 to 1042 of SEQ ID NO: 1 (Table 6) (antisense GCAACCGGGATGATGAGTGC; MOE gapmer, wing and gap sizes not given here) = 23
ISIS 417002: MOE gapmer, nucleobases 1275 to 1318 of SEQ ID NO: 1 (Table 8) (antisense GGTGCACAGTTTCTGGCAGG; MOE gapmer, wing and gap sizes not given here) = 23
ISIS 416864: MOE gapmer, nucleobases 1275 to 1318 of SEQ ID NO: 1 (Table 8) (antisense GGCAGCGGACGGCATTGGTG; MOE gapmer, wing and gap sizes not given here) = 23

Consider the record given below.
**Q:** Kindly indicate its recorded MCH. Item: ISIS 416858: MOE gapmer, nucleobases 1275 to 1318 of SEQ ID NO: 1 (Table 8) (antisense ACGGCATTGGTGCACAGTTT; MOE gapmer, wing and gap sizes not given here)
**A:** 22

###

Assay: Hematology assays in cynomolgus monkeys (Example 45)
Format: in vivo
Details: day 85
Procedure: Groups, each consisting of two male and three female monkeys, were injected subcutaneously with ISIS 416838, ISIS 416850, ISIS 416858, ISIS 416864, or ISIS 417002 in escalating doses. […] Body weights were measured weekly. […]
Returns 1 if the recorded eosinophils is greater than or equal to 1%, and -1 otherwise.

ISIS 416850: MOE gapmer, nucleobases 1275 to 1318 of SEQ ID NO: 1 (Table 8) (antisense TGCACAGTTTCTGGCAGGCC; MOE gapmer, wing and gap sizes not given here) = 1
ISIS 416838: MOE gapmer, nucleobases 1018 to 1042 of SEQ ID NO: 1 (Table 6) (antisense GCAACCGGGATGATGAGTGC; MOE gapmer, wing and gap sizes not given here) = 1
ISIS 416864: MOE gapmer, nucleobases 1275 to 1318 of SEQ ID NO: 1 (Table 8) (antisense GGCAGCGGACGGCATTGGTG; MOE gapmer, wing and gap sizes not given here) = 1
ISIS 416858: MOE gapmer, nucleobases 1275 to 1318 of SEQ ID NO: 1 (Table 8) (antisense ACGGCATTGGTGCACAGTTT; MOE gapmer, wing and gap sizes not given here) = -1

Consider the record given below.
**Q:** Hi team, for ISIS 417002: MOE gapmer, nucleobases 1275 to 1318 of SEQ ID NO: 1 (Table 8) (antisense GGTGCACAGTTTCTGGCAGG; MOE gapmer, wing and gap sizes not given here) , is the recorded eosinophils at or above 1%?
**A:** -1
